Tested on: NCI-H23 lung
Experiment: NCI-60 one-dose screen, 48 h (100 = growth as untreated, 0 = no growth, -100 = all killed)
Settings: 10 µM unless noted
The panel holds about 83,000 compounds, 20% with a hit somewhere; the sample as a whole holds those more often.
The following molecules are shown together with reported growth values.
Response body: numeric value in %, unit text excluded.

Please review the entries below; each comes with its answer.
INSERT INTO measurements (molecule, measurement) VALUES
  ('COc1ccc(N(CC(=O)NCCC[Te]c2ccccc2)C(=O)c2ccccc2)cc1', 0.588),
  ('COC12CC3C4=CCOC5CC(=O)N6c7ccccc7C1(CCN2C4)C6C53 (stereo unspecified)', 102),
  ('C[C@]12CC[C@H]3[C@@H](CC=C4c5nc(N)sc5CC[C@@]43C)[C@@H]1CC[C@@H]2O', 98.4),
  ('Nc1nc(=S)nc(N)[nH]1', 89.5),
  ('C[N+]1(C)CCCC1c1cccnc1 (stereo unspecified)', 101);

# ---- query molecule ----
Please report the recorded growth for COc1ccc(C(C#N)C(C)=O)cc1 (stereo unspecified) .
97.9
